measured on: T1, VV B5 monomer protein (Wyeth Vaccinia strain B5 with C-terminal AVI tag and HIS6 tag) (Vaccinia virus, Wyeth strain, UniProt O57254 18-279)
T1 construct: also called B5 protein; VV B5 protein
assay info: BLI (Octet), antibody on AHC sensor, B5 monomer analyte
A collection of binders and their measured pKd
# pKd = -log10(concentration in molar units)

>>> recorded_measurement("A048-H2L2 (antibody, V domains shown) VH: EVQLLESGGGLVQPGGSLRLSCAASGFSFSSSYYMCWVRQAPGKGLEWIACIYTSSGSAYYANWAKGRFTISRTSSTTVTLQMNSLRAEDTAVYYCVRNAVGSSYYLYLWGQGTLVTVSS VL: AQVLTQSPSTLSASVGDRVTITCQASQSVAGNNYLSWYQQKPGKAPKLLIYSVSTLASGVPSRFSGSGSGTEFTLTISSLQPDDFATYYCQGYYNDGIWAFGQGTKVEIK")
8.10
>>> recorded_measurement("A048-H4L2 (antibody, V domains shown) VH: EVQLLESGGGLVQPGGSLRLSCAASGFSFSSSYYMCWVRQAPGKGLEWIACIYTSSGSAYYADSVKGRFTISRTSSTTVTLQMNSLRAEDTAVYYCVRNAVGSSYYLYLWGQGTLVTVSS VL: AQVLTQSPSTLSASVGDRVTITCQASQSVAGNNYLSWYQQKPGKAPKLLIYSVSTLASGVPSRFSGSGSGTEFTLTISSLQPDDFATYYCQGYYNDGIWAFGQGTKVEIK")
8.11
>>> recorded_measurement("A048-H1L1 (antibody, V domains shown) VH: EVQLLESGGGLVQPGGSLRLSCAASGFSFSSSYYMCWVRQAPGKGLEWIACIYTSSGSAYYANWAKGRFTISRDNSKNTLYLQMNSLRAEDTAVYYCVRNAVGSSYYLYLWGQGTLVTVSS VL: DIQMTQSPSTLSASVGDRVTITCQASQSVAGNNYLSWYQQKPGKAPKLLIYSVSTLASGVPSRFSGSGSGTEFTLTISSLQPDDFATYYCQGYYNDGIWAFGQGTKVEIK")
8.00

Now, please, on to the next binder.
Please list pKd recorded for the binder A048-H1L4 (antibody, V domains shown) VH: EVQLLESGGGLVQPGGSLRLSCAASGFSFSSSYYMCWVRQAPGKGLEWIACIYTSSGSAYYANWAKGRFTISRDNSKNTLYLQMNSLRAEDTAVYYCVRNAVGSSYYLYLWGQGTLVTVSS VL: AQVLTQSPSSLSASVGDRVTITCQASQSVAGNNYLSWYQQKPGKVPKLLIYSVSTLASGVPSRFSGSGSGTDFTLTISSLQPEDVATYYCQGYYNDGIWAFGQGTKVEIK
7.92
